UniProt:Q13464: reported pIC50 for various compounds.
Sequence (Q13464 whole entry, species assumed): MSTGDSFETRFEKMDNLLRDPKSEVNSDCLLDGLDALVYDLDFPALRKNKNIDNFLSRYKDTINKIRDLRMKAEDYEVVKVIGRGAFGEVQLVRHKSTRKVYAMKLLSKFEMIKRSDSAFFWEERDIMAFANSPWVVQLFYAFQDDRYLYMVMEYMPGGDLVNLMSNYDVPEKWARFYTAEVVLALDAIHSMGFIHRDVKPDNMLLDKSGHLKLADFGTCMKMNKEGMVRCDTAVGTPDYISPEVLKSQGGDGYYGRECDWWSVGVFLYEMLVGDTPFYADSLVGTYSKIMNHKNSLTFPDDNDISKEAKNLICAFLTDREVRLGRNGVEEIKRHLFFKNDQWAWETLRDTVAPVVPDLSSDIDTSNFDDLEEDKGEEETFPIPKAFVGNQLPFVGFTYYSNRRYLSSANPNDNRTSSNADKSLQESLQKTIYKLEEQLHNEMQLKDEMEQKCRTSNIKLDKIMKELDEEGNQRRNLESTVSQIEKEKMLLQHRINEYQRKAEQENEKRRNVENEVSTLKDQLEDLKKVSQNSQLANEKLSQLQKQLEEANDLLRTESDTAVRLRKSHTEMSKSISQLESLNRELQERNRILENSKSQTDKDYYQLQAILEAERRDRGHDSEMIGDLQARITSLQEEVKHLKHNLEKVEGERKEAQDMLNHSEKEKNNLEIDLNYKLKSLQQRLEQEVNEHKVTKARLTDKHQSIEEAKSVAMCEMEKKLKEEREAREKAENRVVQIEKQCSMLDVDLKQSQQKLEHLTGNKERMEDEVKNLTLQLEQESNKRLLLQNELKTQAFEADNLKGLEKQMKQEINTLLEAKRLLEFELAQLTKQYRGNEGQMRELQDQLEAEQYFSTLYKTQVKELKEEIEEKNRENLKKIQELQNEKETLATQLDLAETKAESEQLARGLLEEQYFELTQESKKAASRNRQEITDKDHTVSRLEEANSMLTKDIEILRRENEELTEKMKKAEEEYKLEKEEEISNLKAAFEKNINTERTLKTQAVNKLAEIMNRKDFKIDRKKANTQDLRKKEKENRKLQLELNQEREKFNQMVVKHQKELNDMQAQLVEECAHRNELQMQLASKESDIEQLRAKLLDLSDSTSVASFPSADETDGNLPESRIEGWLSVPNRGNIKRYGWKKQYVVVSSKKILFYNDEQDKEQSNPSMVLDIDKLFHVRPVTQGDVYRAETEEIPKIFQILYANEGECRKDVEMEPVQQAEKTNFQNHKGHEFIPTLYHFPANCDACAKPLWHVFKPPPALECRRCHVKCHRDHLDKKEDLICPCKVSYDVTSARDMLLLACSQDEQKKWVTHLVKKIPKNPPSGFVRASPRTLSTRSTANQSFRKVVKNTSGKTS
Remember, pIC50 is on a log scale: it is -log10 of the molar concentration.

- COMPOUND: "COc1cc(C(=O)NC(C)c2cc(F)cc(F)c2)ccc1-c1cn[nH]c1 (racemic)"
  MEASUREMENT TARGET: "UniProt:Q13464"
  QUANTITATIVE READOUT: 7.58

Shifting focus to the compound that follows.
Determine from records and report pIC50 for COc1cc(C(=O)NCc2cccc(O)c2)ccc1-c1cn[nH]c1
9.07
